Measured Ki accompanies every entry in the list below.
Assay: Binding affinity to cannabinoid receptor in rat brain membrane assessed as cannabinomimetic activity
Assay type: cell membranes
Parameter: Ki (µM)

Compound	Result Units	Val
CCCCCCC[C@@H]1C[C@H]1CCC(=O)O/C=C\C=C\COC(C)=O	µM	4.7
CCCCCCC[C@@H]1C[C@H]1CCC(=O)NCCc1ccccc1 [GRENADAMIDE C]	µM	4.7

Sourced from ChEMBL document CHEMBL1150893
